- System: HepG2 cells
- test_description: TPC assay (total protein content), HepG2
- Assay type: cell-based, human
- condition_notes: HepG2, 72 h, vs negative control 0.1% DMSO
reported_metric: Lowest concentration with significant (p ≤ 0.05) decrease of total protein content (TPC) (µM)
The reply should be a number in µM, with the unit left off.

Reference set (3 entries):
- compound: "O=[N+]([O-])[O-].OCc1ccncc1.OCc1ccncc1.[Ag+] [Silver(I) + 4-hydroxymethylpyridine, [(4-hydroxymethylpyridine)2Ag]NO3]"
  unit_name: "µM"
  meas_value: 7.6
- compound: "O=[N+]([O-])[O-].[Ag+] [Silver nitrate]"
  unit_name: "µM"
  meas_value: 8.8
- compound: "Cc1ncc([N+](=O)[O-])n1CCO.Cc1ncc([N+](=O)[O-])n1CCO.O=[N+]([O-])[O-].[Ag+] [Silver(I) + metronidazole, [(Metronidazole)2AgNO3]]"
  unit_name: "µM"
  meas_value: 3.0

Would you mind telling me what Lowest concentration with significant (p ≤ 0.05) decrease of total protein content (TPC) value was observed for Cc1ncc([N+](=O)[O-])n1CCO ?
8.8

###

- Test system: HepG2 cells
- test_description: NRU assay (lysosomal activity), HepG2
- Assay type: cell-based, human
- condition_notes: HepG2, 72 h, vs negative control 0.1% DMSO
The following compounds are shown together with reported Lowest concentration with significant (p ≤ 0.05) inhibition of lysosomal activity (NRU) values.
The reply should be a number in µM, with the unit left off.

- compound: "Cc1ncc([N+](=O)[O-])n1CCO"
  meas_value: 146
- compound: "O=[N+]([O-])[O-].OCc1ccncc1.OCc1ccncc1.[Ag+] [Silver(I) + 4-hydroxymethylpyridine, [(4-hydroxymethylpyridine)2Ag]NO3]"
  meas_value: 3.8

Find the measured Lowest concentration with significant (p ≤ 0.05) inhibition of lysosomal activity (NRU): item O=[N+]([O-])[O-].[Ag+] [Silver nitrate] , target or system HepG2 cells.
4.4

Then this compound: Cc1ncc([N+](=O)[O-])n1CCO.Cc1ncc([N+](=O)[O-])n1CCO.O=[N+]([O-])[O-].[Ag+] [Silver(I) + metronidazole, [(Metronidazole)2AgNO3]]
6.0

###

- test_description: Cytotoxicity over four assays in both cell lines
- Format: cell-based
- condition_notes: mouse (Balb/c 3T3) and human (HepG2), Balb/c 3T3 clone A31 fibroblasts and HepG2 hepatoma cells, mostly greater than 50%, read-out: Viability of the cells at the highest concentrations used
reported_metric: viability at 72 h

- compound: "OCc1ccncc1 [4-hydroxymethylpyridine]"
  viability at 72 h: "> 50%"

In the following, a different compound is considered.
Would you mind telling me what viability at 72 h value was observed for Cc1ncc([N+](=O)[O-])n1CCO ?
> 50%

###

The following compounds are shown together with reported pIC50 values.
- Tested on: Balb/c 3T3 cells
- test_description: NRU assay (lysosomal activity), Balb/c 3T3
- Assay type: cell-based, mouse
- condition_notes: Mus musculus, BALB/c3T3; Balb/c 3T3, 72 h exposure, mean (n = 3) ± SEM; read-out: Inhibitory concentration IC50, NRU
pIC50: −log10 of the molar value.

- compound: "OCc1ccncc1 [4-hydroxymethylpyridine]"
  pIC50: "< 3.64"

In the following, a different compound is considered.
Would you mind telling me what pIC50 value was observed for Cc1ncc([N+](=O)[O-])n1CCO [Metronidazole] ?
< 3.84
